Measured T/C accompanies every entry in the list below.
tested on: L1210 leukemia ip in BDF1 mice, survival T/C; assay: NCI In Vivo Anticancer Drug Screen. Data for tumor model L1210 Leukemia (intraperitoneal) in B6D2F1 (BDF1) mice; settings: endpoint: mean survival time; dose: 200.0 mg/kg/injection; schedule: Q01DX001 (ip); vehicle: saline; higher = longer survival
Toxic doses and inconclusive results are not listed.

Some molecules with known T/C results, for comparison:
CCOC(=O)Nc1ccc(OC(=O)Oc2ccc(NC(=O)OCC)cc2)cc1 :: 97 % of control
CCC1CN1C(=O)c1ccc(OP(=O)(N2CC2CC)N2CC2CC)cc1 (configuration not stated) :: 105 % of control
O=C1NC(=O)C(c2ccc(C(=O)O)cc2)N1 (configuration not stated) :: 100 % of control
N#CC(c1ccccc1)C(c1ccccc1)c1ccccc1 (configuration not stated) :: 98 % of control
Cn1c(=O)c2[nH]c(CCC3CCCC3)nc2n(C)c1=O :: 96 % of control
NCCCN1CCCC1=O :: 101 % of control
Cc1nc2nc(N)nc(N)c2nc1C :: 102 % of control
S=C(Nc1ccccc1)NC1CC2C=CC1CC2 (configuration not stated) :: 92 % of control
Cc1cc(C)c(O)c(CN(Cc2cc(C)cc(C)c2O)C2CCCCC2)c1 :: 88 % of control
O=C1C(O)C23CC=CCC12CC=CC3 (configuration not stated) :: 105 % of control

Ask | Give me measured T/C, please, for this molecule: `N#Cc1ccc(S(=O)(=O)N=C(N)N)cc1`
Reply | 91 % of control

Ask | Give the reported value of T/C for this record: `C(=N\N1CCN(/N=C/c2cccc(OCc3ccccc3)c2)CC1)/c1cccc(OCc2ccccc2)c1`
Reply | 87 % of control

Data origin: PubChem BioAssay AID248
